# inhibition annotations
# Target or system: SRSF protein kinase 1 (Homo sapiens) (UniProt Q96SB4)
# Sequence (Q96SB4 whole entry): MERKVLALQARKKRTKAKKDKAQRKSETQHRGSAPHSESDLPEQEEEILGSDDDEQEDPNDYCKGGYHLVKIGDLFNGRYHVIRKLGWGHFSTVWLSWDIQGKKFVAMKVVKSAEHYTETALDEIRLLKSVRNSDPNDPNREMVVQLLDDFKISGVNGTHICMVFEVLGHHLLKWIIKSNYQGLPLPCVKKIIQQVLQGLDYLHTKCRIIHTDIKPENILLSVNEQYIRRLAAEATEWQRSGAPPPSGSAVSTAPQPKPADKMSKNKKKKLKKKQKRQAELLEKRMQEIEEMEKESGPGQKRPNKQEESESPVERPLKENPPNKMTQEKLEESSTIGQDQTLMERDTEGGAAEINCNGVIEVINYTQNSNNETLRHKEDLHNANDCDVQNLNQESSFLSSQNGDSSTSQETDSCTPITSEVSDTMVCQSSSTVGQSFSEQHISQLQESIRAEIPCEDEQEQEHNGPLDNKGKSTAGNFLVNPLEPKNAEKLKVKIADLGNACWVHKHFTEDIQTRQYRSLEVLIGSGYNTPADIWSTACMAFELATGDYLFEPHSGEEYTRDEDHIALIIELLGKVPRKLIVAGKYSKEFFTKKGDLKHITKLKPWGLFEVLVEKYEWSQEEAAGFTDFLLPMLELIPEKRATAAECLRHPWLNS
# Condition: at 1 µM
Write the answer as a number in %, unit excluded.

Please review the entries below; each comes with its answer.
Request: Provide measured inhibition on SRSF protein kinase 1 (Homo sapiens) (UniProt Q96SB4) for CN(c1ccc(NC(=O)NCCN2CCOCC2)cc1)c1ccnc(Nc2ccc(CS(C)(=O)=O)cc2)n1 please.
Response: 2.58

Request: Write down the reported inhibition (system: SRSF protein kinase 1 (Homo sapiens) (UniProt Q96SB4)) of Cc1cc(O)cc(C)c1/C=C/c1cncc(C(=O)OC(C)(C)C)c1
Response: 0.59

Request: Specify the recorded inhibition for c1cnn2ncc(-c3ccnc(NCCCN4CCOCC4)n3)c2c1 , system: SRSF protein kinase 1 (Homo sapiens) (UniProt Q96SB4).
Response: -3.38

Request: Write down the reported inhibition (system: SRSF protein kinase 1 (Homo sapiens) (UniProt Q96SB4)) of Fc1ccc(Nc2nccc(-c3c(-c4ccc(C(F)(F)F)cc4)nn4ncccc34)n2)cc1F
Response: -3.45

Request: State, for SRSF protein kinase 1 (Homo sapiens) (UniProt Q96SB4), measured inhibition of the compound listed here: Cc1nnc(-c2cccc(-c3ccc(C(=O)NCC4CC4)cc3)c2)o1
Response: 2.29

Note: attention shifts to another entry.
Request: Provide inhibition, tested on SRSF protein kinase 1 (Homo sapiens) (UniProt Q96SB4), for COc1cccc(-n2ncc3c(N/N=C/c4ccc(C(=O)NCCN(C)C)cc4)ncnc32)c1 .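 Further: reported values are mean percent inhibition of SRPK1.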
Response: -2.59
